# Tested on: Staphylococcus aureus
# ASSAY_CONTEXT: Concentration 32 ug.mL-1;; ASSAY_TEST Inhibition of Bacterial Growth; detection method Absorption (OD600); MEDIA CAMHB; plate type 384well; NBS; CORNING #3640; time 18 hr
# Description: Antibacterial activity against Staphylococcus aureus MRSA ATCC 43300 (CO-ADD:GP_020); MIC in CAMBH media, using NBS plates, by OD(600)
Measured potencies and affinities stand elsewhere.
Reported values of Inhibition for individual entries
MEASURED_PROPERTY: Inhibition (%)

| SMILES_STR | MEASURED_PROPERTY | MEAS_VALUE |
| --- | --- | --- |
| CC(C)Cn1c(=O)c2sccc2n2c(=O)n(CC(=O)NC(C)(C)C)nc12 | Inhibition | -11.52 |
| Cc1ccc(Sc2ccc3nn(CC(=O)Nc4ccc(F)c(Cl)c4)c(=O)n3n2)cc1 | Inhibition | 7.06 |
| COc1cccc(-n2ccn3c(SCC(=O)NCc4ccco4)nnc3c2=O)c1 | Inhibition | 13.02 |
| CCCCOc1ccc(-c2cc3c4nnc(SCC(=O)N(C)c5ccc(F)cc5)n4ccn3n2)cc1 | Inhibition | -20.91 |
| COc1ccc(NC(=O)Cn2nc3ccc(SC(C)(C)C)nn3c2=O)cc1OC | Inhibition | 4.97 |
| CCc1ccc(N(Cc2ccc(Cl)cc2)S(=O)(=O)c2cccn3c(C)nnc23)cc1 | Inhibition | 0.63 |
| CC(C)c1ccc(N(Cc2cccc(Cl)c2)S(=O)(=O)c2cccn3cnnc23)cc1 | Inhibition | -3.13 |
| CC(C)c1ccc(N(Cc2ccccc2)S(=O)(=O)c2cccn3cnnc23)cc1 | Inhibition | 5.98 |
| COC(=O)c1ccc(NC(=O)Cn2nc3ccc(S(=O)(=O)C4CCCCC4)nn3c2=O)cc1 | Inhibition | 8.6 |
| Cc1nnc2c(=O)n(CC(=O)Nc3ccccc3Cl)c3ccccc3n12 | Inhibition | 10.77 |
| COc1ccc(N2CCN(C(=O)Cn3nc4ccc(S(=O)(=O)C(C)(C)C)nn4c3=O)CC2)cc1 | Inhibition | 12.76 |
| CCOC(=O)c1ccc(NC(=O)Cn2nc3c(N4CCOCC4)nccn3c2=O)cc1 | Inhibition | 2.06 |
| Cc1ccc(Cn2c(=O)c3ccccc3n3c(=O)n(CC#N)nc23)cc1 | Inhibition | 3.14 |
| COc1ccc(NC(=O)Cn2nc3c(Sc4ccccc4)nccn3c2=O)cc1Cl | Inhibition | -4.6 |
| COc1ccc(NC(=O)Cn2nc3c4cc(-c5ccc(C)cc5)nn4ccn3c2=O)cc1Cl | Inhibition | -6.7 |
| O=C(CSc1nnc2c3cc(-c4ccc(F)cc4)nn3ccn12)NCc1ccccc1Cl | Inhibition | 1.62 |
| CCc1nnc2c(S(=O)(=O)N(Cc3ccccc3F)c3ccc(F)cc3)cccn12 | Inhibition | 1.79 |
| CCOc1ccc(-n2ccn3c(SCC(=O)c4ccccc4)nnc3c2=O)cc1 | Inhibition | 6.87 |
| O=c1c2nn(Cc3ccc([N+](=O)[O-])cc3)c(=O)n2ccn1-c1ccccc1 | Inhibition | 12.75 |
| CC(C)c1ccc(NC(=O)CSc2nnc3c(=O)n(-c4ccccc4)ccn23)cc1 | Inhibition | 3.45 |

---

Inhibition: recorded values
# Test system: Escherichia coli
# ASSAY_CONTEXT: Concentration 32 ug.mL-1;; ASSAY_TEST Inhibition of Bacterial Growth; detection method Absorption (OD600); MEDIA CAMHB; plate type 384well; NBS; CORNING #3640; time 18 hr
# Description: Antibacterial activity against Escherichia coli ATCC 25922 (CO-ADD:GN_001); MIC in CAMBH media using NBS plates, by OD(600)
Entries with a potency or affinity are not part of this list.

| COMPOUND | Inhibition / % |
| --- | --- |
| COC(=O)c1ccc(NC(=O)CSc2nnc3ccc(C(=O)Nc4cccc(F)c4)cn23)cc1 | -0.45 |
| COc1cccc(-n2ccn3c(SCC(=O)c4ccc(OC)c(OC)c4)nnc3c2=O)c1 | 2.93 |
| Cc1ccc(-c2noc(Cn3nc4ccc(-c5ccccc5)nn4c3=O)n2)cc1 | -11.36 |
| CC(C)CCn1c(=O)c2ccc(C(=O)NC3CCCC3)cc2n2c(=O)n(CC#N)nc12 | 0.05 |
| C=Cc1ccc(CN(c2ccc(F)cc2)S(=O)(=O)c2ccc3nnc(C)n3c2)cc1 | -7.93 |
| O=C(CCc1nnc2c(N3CCCCC3)nc3ccccc3n12)NCc1ccc(Cl)cc1 | 0.78 |
| CCc1ccc(NC(=O)Cn2nc3ccc(SC4CCCCC4)nn3c2=O)cc1 | 2.08 |
| Cc1ccc(Cl)cc1NC(=O)CSc1nnc2n(CC3CCCO3)c(=O)c3sccc3n12 (stereo not given) | -0.5 |
| COc1cccc(-n2ccn3c(SCc4ccccc4C)nnc3c2=O)c1 | -3.45 |
| CCOc1ccc(C(=O)CSc2nnc3c(=O)n(-c4ccc(C)c(C)c4)ccn23)cc1 | -11.39 |
| CCc1ccccc1Sc1nccn2c(=O)n(CC(=O)N3CCN(c4ccccc4F)CC3)nc12 | -8.54 |
| N#Cc1ccc(NC(=O)Cn2nc3c(Oc4ccccc4)nccn3c2=O)cc1 | -6.5 |
| Cc1cccc(NC(=O)Cn2nc3c4cc(-c5ccc(Cl)cc5)nn4ccn3c2=O)c1C | -1.29 |
| O=c1c2nnc(SCc3ccccc3Cl)n2ccn1-c1ccc(F)c(F)c1 | -3.79 |
| O=C(Cn1nc2c(N3CCSCC3)nc3ccccc3n2c1=O)NCc1ccccc1 | -1.64 |
| CCCN(C)c1nccn2c(=O)n(CC(=O)Nc3ccc(OC)c(Cl)c3)nc12 | -1.22 |
| N#Cc1ccccc1NC(=O)Cn1nc2c(Oc3ccccc3)nccn2c1=O | 1.56 |
| CCOC(=O)c1ccccc1NC(=O)Cn1nc2ccc(C(=O)Nc3ccc(OC)cc3)cn2c1=O | -8.03 |
| CCN(C(=O)Cn1nc2nc(Nc3ccc(F)cc3)ccn2c1=O)c1ccccc1 | -3.17 |
| CC(C)Sc1ccc2nn(CC(=O)Nc3ccc(F)cc3Cl)c(=O)n2n1 | -3 |
| Cc1cccc(C)c1NC(=O)Cn1nc2c(SC3CCCCC3)nccn2c1=O | -6.16 |
| CCOC(=O)c1ccccc1NC(=O)CSc1nnc2ccc(C(=O)Nc3cccc(F)c3)cn12 | -2.64 |
| CC(=O)c1ccc(NC(=O)Cn2nc3c(Sc4ccc(C)cc4C)nccn3c2=O)cc1 | -21.11 |
| COc1ccc(C)cc1NC(=O)Cn1nc2c3cc(-c4ccc(Cl)cc4)nn3ccn2c1=O | 3.41 |
| CCOc1ccc(-n2ccn3c(SCC(=O)c4cccc(Cl)c4)nnc3c2=O)cc1 | 0.66 |
| Cc1cc(C)cc(Nc2nc(C)cc3nn(CC(=O)NC4CCCCC4)c(=O)n23)c1 | -1.15 |
| CCOc1cccc(CNC(=O)CCc2nnc3ccc(-c4ccc(C)cc4)nn23)c1 | -5.83 |
| COc1ccc(NC(=O)c2ccc3nn(CC(=O)Nc4cccc(OC)c4)c(=O)n3c2)cc1 | 0.97 |
| O=C(CSc1nnc2c3cc(-c4ccc(F)cc4)nn3ccn12)NCCc1ccccc1 | -7.39 |
| CCC(C)NC(=O)Cn1nc2n(CC(C)C)c(=O)c3ccc(C(=O)NC4CCCCC4)cc3n2c1=O (stereo not given) | -3.14 |
| Cc1ccc(Oc2nccn3c(=O)n(CC(=O)Nc4ccccc4C(F)(F)F)nc23)cc1 | 0.58 |
| Cc1ccc(-c2ccc3nn(CC(=O)Nc4ccc(Br)cc4)c(=O)n3n2)cc1C | -2.09 |
| COc1ccc(NC(=O)Cn2nc3c(Sc4ccccc4)nccn3c2=O)cc1Cl | -4.12 |
| Cc1ccc(Sc2nccn3c(=O)n(CC(=O)Nc4ccc(C)cc4Br)nc23)c(C)c1 | -4.19 |
| COc1ccc(N(Cc2cccc(F)c2)S(=O)(=O)c2ccc3nncn3c2)cc1 | 1.35 |
| CC(C)c1nnc2c(SCC(=O)Nc3ccc(Br)cc3)nc3ccccc3n12 | 1.75 |
| COc1cc(NC(=O)C(C)Sc2nnc3c(=O)n(-c4ccc(C)c(C)c4)ccn23)cc(OC)c1 (stereo not given) | -10.24 |
| COC(=O)c1ccc(CN(c2ccc(C)cc2)S(=O)(=O)c2ccc3nnc(C)n3c2)o1 | -4.99 |
| O=c1n(Cc2c(F)cccc2Cl)nc2ccc(-c3ccccc3)nn12 | 0.7 |
| CC(C)Cn1c(=O)c2sccc2n2c(=O)n(CC(N)=O)nc12 | -14.55 |

---

# Test system: Staphylococcus aureus
# ASSAY_CONTEXT: Concentration 32 ug.mL-1;; ASSAY_TEST Inhibition of Bacterial Growth; detection method Absorption (OD600); MEDIA CAMHB; plate type 384well; NBS; CORNING #3640; time 18 hr
Entries with a potency or affinity are not part of this list.

| MOLECULE | Inhibition |
| --- | --- |
| CCc1ccccc1NC(=O)Cn1nc2c(SC3CCCCC3)nccn2c1=O | 7.59% |
| COC(=O)c1ccc(CN(c2cccc(C)c2)S(=O)(=O)c2cccn3c(C)nnc23)o1 | 5.77% |
| CCOC(=O)N1CCN(C(=O)CCc2nnc3c4cc(-c5ccc(F)cc5)nn4ccn23)CC1 | 10.85% |
| Cc1ccc(-c2ccc3nn(CC(=O)NCc4ccc(Cl)cc4)c(=O)n3n2)cc1C | -0.74% |
| COc1ccc(-c2cc3c4nn(CC(=O)N5CCCc6ccccc65)c(=O)n4ccn3n2)cc1 | 6.07% |
| Cc1ccc(NC(=O)Cn2nc3ccc(SC(C)C)nn3c2=O)c(Cl)c1 | -9.9% |
| CCc1nnc2c(SCC(=O)NCc3ccccc3Cl)nc3ccccc3n12 | 4.41% |
| CCc1ccccc1Sc1nccn2c(=O)n(CC(=O)NCc3cccs3)nc12 | 6.5% |
| CCOC(=O)c1ccc(NC(=O)Cn2nc3ccc(SC(C)(C)C)nn3c2=O)cc1 | -4.89% |
| Cc1ccccc1-c1noc(Cn2nc3ccc(-c4ccccc4)nn3c2=O)n1 | -12.29% |
| O=C(Cn1nc2c(SC3CCCCC3)nccn2c1=O)Nc1ccccc1Br | -0.6% |
| COc1ccc(OC)c(NC(=O)Cn2nc3ccc(-c4ccc(Cl)cc4)nn3c2=O)c1 | 10.25% |
| CC1CCCN(c2nccn3c(=O)n(CC(=O)Nc4ccc(Br)cc4F)nc23)C1 (stereo unspecified) | 12.44% |
| CCc1nnc2c(S(=O)(=O)N(Cc3ccccc3C)c3ccc(Cl)cc3)cccn12 | -22.93% |
| Cc1nnc2c(S(=O)(=O)N(Cc3ccc(F)cc3)c3ccc(F)c(F)c3)cccn12 | 15.7% |
| Cc1nnc2c(=S)[nH]c3ccccc3n12 | 19.6% |
| Cc1ccccc1N1CCN(c2nccn3c(=O)n(CC(=O)Nc4cccc(C(C)C)c4)nc23)CC1 | 14.78% |
| COC(=O)c1ccc(NC(=O)Cn2nc3c(N4CCOCC4)nccn3c2=O)cc1 | 12.61% |
| Cc1cc(C)cc(NC(=O)Cn2nc3n(C)c(=O)c4c(c(-c5ccccc5)cn4C)n3c2=O)c1 | 7.23% |
| Cc1c(Cl)cccc1-n1ccn2c(=O)n(Cc3ccc(Cl)cc3)nc2c1=O | 9.17% |
| Cc1ccc(Oc2nccn3c(=O)n(CC(=O)N4CCN(c5ccccc5F)CC4)nc23)cc1 | 10.22% |
